Biological target: full-length NS3/NS4A-2 (HCV NS3 protease) (Hepatitis C virus genotype 1a, UniProt P27958)
Construct: Recombinant E. coli or Baculovirus full-length NS3 was diluted to 3.33 μM with assay buffer; made in house; host or cells: E. coli or baculovirus (BV) expression system
Sequence (P27958 1027-1657): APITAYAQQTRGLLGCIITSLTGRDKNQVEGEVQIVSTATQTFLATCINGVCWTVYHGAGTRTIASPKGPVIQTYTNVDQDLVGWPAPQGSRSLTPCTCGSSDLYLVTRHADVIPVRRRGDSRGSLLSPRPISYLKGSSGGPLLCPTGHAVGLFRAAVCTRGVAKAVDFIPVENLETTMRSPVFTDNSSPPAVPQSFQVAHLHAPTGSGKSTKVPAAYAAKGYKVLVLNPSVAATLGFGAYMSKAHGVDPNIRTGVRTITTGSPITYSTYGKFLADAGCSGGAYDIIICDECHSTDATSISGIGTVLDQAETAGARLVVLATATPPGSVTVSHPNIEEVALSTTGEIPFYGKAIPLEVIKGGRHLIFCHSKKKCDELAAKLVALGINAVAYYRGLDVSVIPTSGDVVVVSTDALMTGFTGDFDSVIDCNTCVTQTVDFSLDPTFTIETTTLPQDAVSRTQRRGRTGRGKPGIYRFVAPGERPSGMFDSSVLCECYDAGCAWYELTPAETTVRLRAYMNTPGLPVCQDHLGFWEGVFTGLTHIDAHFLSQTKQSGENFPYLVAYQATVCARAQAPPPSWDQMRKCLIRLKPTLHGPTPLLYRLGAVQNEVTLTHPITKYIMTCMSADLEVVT
Assay: NS3-NS4 protease assay / NS3 inhibition assay (RETS1 substrate, fluorescence kinetic read)
Type: biochemical
Conditions: recombinant E. coli or Baculovirus full-length NS3 with NS4A-2; read-out: NS3-NS4 IC50
Description: NS3 complex formation with NS4A-2. Recombinant E. coli or Baculovirus full-length NS3 was diluted to 3.33 μM with assay buffer and transferred material to an eppendorf tube and place in water bath in 4° C. refrigerator. The appropriate amount of NS4A-2 to 8.3 mM in assay buffer was added to equal the volume of NS3 in step 2.1.1 (conversion factor—3.8 mg/272 μL assay buffer). […] Read the plate in kinetic mode on the Molecular Devices SpectraMax Gemini XS plate reader. […]
Would you mind telling me the reported IC50 of each entry?

CC[C@@H]1C[C@H]2C(=O)N[C@]3(C(=O)NS(=O)(=O)C4CC4)C[C@H]3/C=C\CCCCC[C@H](NC(=O)OC(C)(C)C)C(=O)N2C1 : > 10000 nM
CC(C)(C)CNC(=O)[C@@]12C[C@H]1/C=C\CCCCC[C@H](NC(=O)OC(C)(C)C)C(=O)N1C[C@H](OC(=O)N3Cc4cccc(F)c4C3)C[C@H]1C(=O)N2 : < 1000 nM
CC(C)(C)OC(=O)N[C@H]1CCCCC/C=C\[C@@H]2C[C@@]2(C(=O)NC(=O)Nc2ccccc2)NC(=O)[C@@H]2C[C@@H](OC(=O)N3Cc4ccccc4C3)CN2C1=O : < 10000 nM

Give measured IC50 for every item shown.
1. CN(Cc1ccccc1)C(=O)O[C@@H]1C[C@H]2C(=O)N[C@]3(C(=O)NS(=O)(=O)C4CC4)C[C@H]3/C=C\CCCCC[C@H](NC(=O)OC(C)(C)C)C(=O)N2C1
2. CC(C)(C)NC(=S)N[C@H]1CCCCC/C=C\[C@@H]2C[C@@]2(C(=O)NS(=O)(=O)C2CC2)NC(=O)[C@@H]2C[C@@H](OC(=O)N3Cc4cccc(F)c4C3)CN2C1=O

Ans.
< 100 nM
< 100 nM
